I'd be grateful if you could share measured MIC for these entries.
Test system: Micrococcus luteus DSM1790
Assay: Microdilution assay, MIC
Assay type: cell-based
Conditions: DSM1790, 20 h, read-out: MIC M. luteus DSM1790
# unit: µg/mL | format: bare number

# input Record request: MIC value, item "COc1c(NC(=O)c2ccc(NC(=O)c3ccc(NC(=O)[C@H](CC#N)NC(=O)c4ccc(NC(=O)/C(C)=C/c5ccc(O)cc5)cc4)cc3)c(OC)c2O)ccc(C(=O)O)c1O"
# output 1000

# input Record request: MIC value, item "COc1c(NC(=O)c2ccc(NC(=O)c3ccc(NC(=O)[C@H](Cc4cnn[nH]4)NC(=O)c4ccc(NC(=O)/C(C)=C/c5ccc(O)cc5)cc4)cc3O)c(OC)c2O)ccc(C(=O)O)c1O"
# output 4000

# input Record request: MIC value, item C#CCOc1ccc(C(=O)Nc2ccc(C(=O)NC(CC3(C)N=N3)C(=O)Nc3ccc(C(=O)Nc4ccc(C(=O)Nc5ccc(C(=O)O)c(O)c5OC)c(O)c4OC)cc3)cc2)cc1 (stereo not shown)
# output 125

# input Record request: MIC value, item "C/C(=C\c1ccc(O)cc1)C(=O)Nc1ccc(C(=O)N[C@@H](CC#N)C(=O)Nc2ccc(C(=O)Nc3ccc(C(=O)Nc4ccc(C(=O)O)c(O)c4)c(O)c3)cc2)cc1"
# output 32000
